target: Protein kinase C beta type (Homo sapiens) (UniProt P05771); settings: at 1 µM;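 also: mean inhibition value, enzyme form tested was the PKC-beta1 splice variant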
Sequence (P05771 2-671 limits assumed): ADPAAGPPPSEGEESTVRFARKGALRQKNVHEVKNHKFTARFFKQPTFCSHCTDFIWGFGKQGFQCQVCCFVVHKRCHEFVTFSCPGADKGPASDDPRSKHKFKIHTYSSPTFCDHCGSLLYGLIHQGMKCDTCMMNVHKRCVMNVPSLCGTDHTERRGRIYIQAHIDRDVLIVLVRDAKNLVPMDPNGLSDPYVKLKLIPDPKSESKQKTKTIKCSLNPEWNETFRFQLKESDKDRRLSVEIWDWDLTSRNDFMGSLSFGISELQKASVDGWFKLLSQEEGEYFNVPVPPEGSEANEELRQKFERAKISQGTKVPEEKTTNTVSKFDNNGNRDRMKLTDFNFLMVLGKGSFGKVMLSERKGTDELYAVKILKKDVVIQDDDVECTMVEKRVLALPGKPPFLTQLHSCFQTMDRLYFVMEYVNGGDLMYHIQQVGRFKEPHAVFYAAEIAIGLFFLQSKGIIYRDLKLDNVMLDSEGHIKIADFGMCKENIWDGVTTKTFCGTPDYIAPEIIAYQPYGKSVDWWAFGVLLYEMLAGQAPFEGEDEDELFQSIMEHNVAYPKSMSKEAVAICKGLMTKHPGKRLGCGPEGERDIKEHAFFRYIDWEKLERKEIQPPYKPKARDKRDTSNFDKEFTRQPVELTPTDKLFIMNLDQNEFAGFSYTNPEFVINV
Description: GSK_PKIS: PKC-beta1 (splice variant) mean inhibition at 1 uM [Nanosyn]
The threshold is inclusive: inhibition of exactly 4% counts as condition met; values below receive condition not met.

compound=NS(=O)(=O)c1ccc(Nc2cc(-c3ccc(O)c(F)c3)n[nH]2)cc1 class_assignment="condition not met"
compound=Fc1ccc(-c2ncn(C3CCNCC3)c2-c2ccnc(Oc3ccc(Oc4ccccc4)cc3)n2)cc1 class_assignment="condition met"
compound=COc1cc(Nc2ncc3c(C)nc(-c4cccc(C(F)(F)F)c4)n3n2)cc(OC)c1OC class_assignment="condition met"
compound=c1ccc(-c2n[nH]cc2-c2ccnc(-c3ccc(OCCN4CCOCC4)cc3)c2)nc1 class_assignment="condition not met"
compound=NC(=O)Cc1ccccc1Oc1nccc(-c2c(-c3ccc(F)cc3)ncn2C2CCNCC2)n1 class_assignment="condition not met"

Attention now shifts to the item below.
I'd appreciate it if you could say whether "CN(C)CCOc1ccc(-c2cc(-c3ccc4c(c3)CCC4=NO)c(-c3ccncc3)o2)cc1" has inhibition at least equal to 4%.
condition met
